# TARGET_OR_SYSTEM: CDK6/Cyclin D3 (Homo sapiens (Human))
# Sequence (Q00534 whole entry): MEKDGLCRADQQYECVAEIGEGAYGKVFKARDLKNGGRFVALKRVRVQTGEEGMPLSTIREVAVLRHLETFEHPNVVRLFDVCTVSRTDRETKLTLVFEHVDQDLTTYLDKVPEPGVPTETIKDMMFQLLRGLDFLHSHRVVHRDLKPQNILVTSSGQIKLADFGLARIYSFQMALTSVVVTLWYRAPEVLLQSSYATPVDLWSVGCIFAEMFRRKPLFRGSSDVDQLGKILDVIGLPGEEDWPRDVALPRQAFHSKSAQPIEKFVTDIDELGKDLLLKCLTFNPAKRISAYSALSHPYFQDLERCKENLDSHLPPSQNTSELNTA
# Sequence (P30281 whole entry partner): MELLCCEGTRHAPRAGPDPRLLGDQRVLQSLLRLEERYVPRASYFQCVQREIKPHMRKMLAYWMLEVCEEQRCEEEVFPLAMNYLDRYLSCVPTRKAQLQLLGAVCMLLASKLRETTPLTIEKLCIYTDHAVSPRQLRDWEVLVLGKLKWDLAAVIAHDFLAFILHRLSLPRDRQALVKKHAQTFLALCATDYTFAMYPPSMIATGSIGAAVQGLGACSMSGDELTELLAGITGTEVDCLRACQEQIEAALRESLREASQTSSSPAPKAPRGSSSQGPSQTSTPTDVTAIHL
# EXPERIMENT_DESCRIPTION: TR-FRET kinase inhibition assay, CDK6/Cyclin D3
# MEASUREMENT_CONTEXT: 1 mM ATP, 0.15 μM Rb (Ser780)-biotin substrate, read-out: CDK6D3 IC50
METRIC: IC50 (nM)

CC(C)NCc1cc(=O)c2ccc(-c3nc(N[C@@H]4CCOC[C@H]4O)ncc3F)cc2n1C(C)C	658
CC(C)n1c(CN2CCC[C@H](C#N)C2)cc(=O)c2ccc(-c3nc(N[C@@H]4CCOC[C@H]4O)ncc3F)cc21	407
CC(C)n1c(CN2CCO[C@@H](C)C2)cc(=O)c2ccc(-c3nc(N[C@@H]4CCOC[C@H]4O)ncc3F)cc21	255
Cc1c(CN)n(C(C)C)c2cc(-c3nc(N[C@@H]4CCOC[C@H]4O)ncc3F)ccc2c1=O	265
CC(C)n1ccc(=O)c2c(Cl)cc(-c3nc(N[C@@H]4CCOC[C@H]4O)ncc3Cl)cc21	808

[P] CC(C)n1c(CN2CCC[C@@H](C#N)C2)cc(=O)c2ccc(-c3nc(N[C@@H]4CCOC[C@H]4O)ncc3F)cc21
[Q] CC(=O)NCc1cc(=O)c2ccc(-c3nc(N[C@@H]4CCOC[C@H]4O)ncc3F)cc2n1C(C)C
Higher IC50 between P and Q ? Your answer should be the label of the entry you select.
Q

[I] CC(C)n1c(CN2CCC(F)(F)CC2)cc(=O)c2ccc(-c3nc(N[C@@H]4CCOC[C@H]4O)ncc3F)cc21
[II] CC(C)n1cc(C(C)(C)O)c(=O)c2ccc(-c3nc(N[C@@H]4CCOC[C@H]4O)ncc3F)cc21
[III] CC(C)n1c(CN2CCC[C@H](F)C2)cc(=O)c2ccc(-c3nc(N[C@@H]4CCOC[C@H]4O)ncc3F)cc21
Please rank these compounds by IC50 in descending order. Thanks in advance for listing the labels in the requested order.
II, III, I

[a] CC(C)n1c(CN2CCC[C@@]3(CCN(C)C3=O)C2)cc(=O)c2ccc(-c3nc(N[C@@H]4CCOC[C@H]4O)ncc3F)cc21
[b] CC(C)n1c(CO)cc(=O)c2ccc(-c3nc(N[C@@H]4CCOC[C@H]4O)ncc3F)cc21
[c] CC(C)n1c(CNc2ccc(F)cc2)cc(=O)c2ccc(-c3nc(N[C@@H]4CCOC[C@H]4O)ncc3F)cc21
[d] Cc1cc(=O)c2ccc(-c3nc(N[C@@H]4CCOC[C@H]4O)ncc3Cl)cc2n1C(C)C
Sort these compounds on IC50 so the largest reading comes first. Submit the labels in the order that the ranking request calls for.
a, d, c, b
(a: 648 nM, d: 420 nM, c: 273 nM, b: 120 nM)

====

# TARGET_OR_SYSTEM: CDK6/Cyclin D3 (Homo sapiens (Human))
# EXPERIMENT_DESCRIPTION: TR-FRET kinase inhibition assay, CDK6/Cyclin D3
# MEASUREMENT_CONTEXT: 1 mM ATP, 0.15 μM Rb (Ser780)-biotin substrate, read-out: CDK6D3 IC50
METRIC: IC50 (nM)

CC(C)n1c(CN)cc(=O)c2ccc(-c3nc(N[C@@H]4CCOC[C@H]4O)ncc3F)cc21	276
CC(C)n1c(CN2CC3CC2C3)cc(=O)c2ccc(-c3nc(N[C@@H]4CCOC[C@H]4O)ncc3F)cc21	1300
CC(C)n1c(CN2CCOC[C@@H]2C)cc(=O)c2ccc(-c3nc(N[C@@H]4CCOC[C@H]4O)ncc3F)cc21	165
CC(C)n1c(CN2C[C@H](O)[C@@H](F)C2)cc(=O)c2ccc(-c3nc(N[C@@H]4CCOC[C@H]4O)ncc3F)cc21	200
CC(C)n1c(CN2CC[C@@H](F)C2)cc(=O)c2cc(F)c(-c3nc(N[C@@H]4CCOC[C@H]4O)ncc3F)cc21	640
CC(C)n1c(CN2C[C@@H](O)[C@H](F)C2)cc(=O)c2ccc(-c3nc(N[C@@H]4CCOC[C@H]4O)ncc3F)cc21	480
CC(C)n1c(CN[C@H]2C[C@H](F)C2)cc(=O)c2ccc(-c3nc(N[C@@H]4CCOC[C@H]4O)ncc3F)cc21	484
Cc1c(CN2CC3CCC(C2)O3)n(C(C)C)c2cc(-c3nc(N[C@@H]4CCOC[C@H]4O)ncc3F)ccc2c1=O	330
CNC(=O)c1cc(=O)c2c(F)cc(-c3nc(N[C@@H]4CCOC[C@H]4O)ncc3F)cc2n1C(C)C	504
Cc1c(CN2[C@H](C)COC[C@H]2C)n(C(C)C)c2cc(-c3nc(N[C@@H]4CCOC[C@H]4O)ncc3F)ccc2c1=O	140

[1] CC(C)n1c(CN[C@H]2C[C@@H](F)C2)cc(=O)c2ccc(-c3nc(N[C@@H]4CCOC[C@H]4O)ncc3F)cc21
[2] CC(C)n1c(CN[C@H]2CCOC2)cc(=O)c2ccc(-c3nc(N[C@@H]4CCOC[C@H]4O)ncc3F)cc21
[3] Cc1c(CN2CCCC3(CCNC3=O)C2)n(C(C)C)c2cc(-c3nc(N[C@@H]4CCOC[C@H]4O)ncc3F)ccc2c1=O (stereo partly drawn)
[4] CC(C)n1ccc(=O)c2ccc(-c3nc(N[C@@H]4CCOC[C@H]4O)ncc3F)cc21
[5] Cc1c(CN2[C@H](C)COC[C@@H]2C)n(C(C)C)c2cc(-c3nc(N[C@@H]4CCOC[C@H]4O)ncc3F)ccc2c1=O
Could you please sort these 5 entries by IC50 from high to low? I would appreciate it if you listed the labels in the requested order.
4, 1, 2, 3, 5
(4: 1250 nM, 1: 702 nM, 2: 483 nM, 3: 230 nM, 5: 21.6 nM)

From: patent US20250136586A1
